- Test system: SF-295 CNS
- testDetails: NCI-60 one-dose screen, 48 h (100 = growth as untreated, 0 = no growth, -100 = all killed)
- studyConditions: 10 µM unless noted
Compounds without any hit were thinned out: in the full panel of roughly 83,000, 20% have a hit.
readoutName: growth (%)
Enter your answer as a number in %; do not include the unit.

compound	readoutName	quantitativeResult
CC1(C)C(N)=Nc2cc(OCCCN3Cc4ccc(OCCc5cn(CC(=O)N6CCC(CCN7CCCC7)CC6)nn5)cc4C3)c(OCC3CC3)cc21	growth	100
CCCCCCCCCCCCCCCCCCOc1cccc(CC(=O)OCC[N+](CC)(CC)CC)c1	growth	40.9

For reference, reported growth for COc1ccc(-c2ccc(-c3ccc(C(=N)N)cn3)s2)cc1Cl stands at -80.9

The compound listed as O=C(Nc1ncc(Cc2cccc(C(F)(F)F)c2)s1)c1ccc2c(c1)OCCO2 shows growth equal to 8.97

Data point: COc1ccccc1/C=C1\COc2ccc(O)c(O)c2C1=O ; growth = 90.8

Quick note, growth for CCN(C(=O)N1CCN(c2cc3c(cc2F)c(=O)c(C(=O)O)cn3C2CC2)CC1)c1nc(-c2ccccc2)cs1 landed at 8.29

###

# growth values compiled below
- Tested on: M14 melanoma
- testDetails: NCI-60 one-dose screen, 48 h (100 = growth as untreated, 0 = no growth, -100 = all killed)
- studyConditions: 10 µM unless noted
- Method: Growth inhibition of the M14 human tumor cell line is measured as a screen for anti-cancer activity. Cells are grown in 96 well plates and exposed to the test compound for 48 hours. Compounds are tested at a single concentration, which is 10^-5 M for most compounds. The reported endpoint is percent growth (GI% or GIPRCNT), where numbers from 0 - 100% represent growth inhibition, and numbers from -100% - 0 represent cell death. For example, a value of 40 represents 60% growth inhibition. […]
Compounds without any hit were thinned out: in the full panel of roughly 83,000, 20% have a hit.
Write the value in % as a bare number.

Solved cases (3 shown):
compound	growth [%]
CCN(CC)/C([O-])=c1\cccc\c1=C1\N=C(c2ccccc2)N=C1[n+]1ccc(-c2ccccc2)cc1	89.6
CCC(=C(c1ccc(OCCCN(C)C)cc1)c1ccc(OCCCN(C)C)cc1)c1ccc(Cl)cc1	-83.5
C=C1CC[C@@H]2[C@](C)(COC(C)=O)[C@H](OC(C)=O)CC[C@@]2(C)[C@@H]1CC(Nc1ccc(S(=O)(=O)Nc2nccs2)cc1)C1=CCOC1=O (stereo partly specified)	8.12

Looking up COC1/C=C/OC2(C)Oc3c(C)c(O)c4c(O)c(c(C=NOC(c5ccccc5)c5ccccc5)c(O)c4c3C2=O)NC(=O)/C(C)=C/C=C/C(C)C(O)C(C)C(O)C(C)C(OC(C)=O)C1C (stereo unspecified) , I see its growth listed as 23.2

The measured growth associated with Nc1ncnc2c1C(c1ccc([N+](=O)[O-])cc1)c1sc3c(F)cccc3c1O2 (stereo unspecified) reads 112

BrC1=C(Br)C(Br)(Br)C(Br)=C1Br has a reported growth of 65.2

The reported growth of the compound Cc1ccc(/C=C2\COc3ccc(O)c(O)c3C2=O)cc1 was 3.41

Reported growth ( Nc1n[nH]c2cccc(C#Cc3cccc(C(=O)Nc4ccc(CN5CCOCC5)c(C(F)(F)F)c4)c3)c12 ) = 5.11

For this compound ( COc1ccc(/C=C(\C#N)c2cc3ccccc3[nH]2)cc1 ), measured growth is 1.53

Memo: COC1=CC(=O)C(OC)=C(O)C1=O , reported growth: 97.2

growth recorded for this compound, CCOC(=O)CC1CSC(c2cccc(Cl)c2)=N1 (stereo unspecified) , is 101

Reported growth of O=C1c2cc3c(cc2-c2c1c1ccc(Cl)cc1c(=O)n2CCCn1ccnc1)OCO3 : -28.6

Kindly note the recorded growth for CN1Cn2c(ccc2C(F)(F)F)C(=O)CS1(=O)=O , which is 104

###

- Test system: A549/ATCC NSCLC
- testDetails: NCI-60 one-dose screen, 48 h (100 = growth as untreated, 0 = no growth, -100 = all killed)
- studyConditions: 10 µM unless noted
Compounds without any hit were thinned out: in the full panel of roughly 83,000, 20% have a hit. The source made the active and inactive calls. The calls were made as follows: active = growth percent below 10; inactive = the rest.
readoutName: growth

molecule	growth
COc1ccc(/C=N/C2=C(C#N)C(c3ccccc3)c3c(ccc4ccccc34)O2)cc1 (stereo not drawn)	41.9% (inactive)
CCOc1ccccc1NC(=O)c1cc2ccccc2cc1O	36.8% (inactive)

Now, please, on to the next molecule.
Looking up CCOC(=O)c1c(-c2ccc(C)cc2)c(C#N)c(=O)n(-c2cccc(C(F)(F)F)c2)c1N , I see its growth listed as 101% (inactive)

###

- Tested on: EKVX NSCLC
- testDetails: NCI-60 one-dose screen, 48 h
- studyConditions: 10 µM unless noted
The panel holds about 83,000 compounds, 20% with a hit somewhere; the sample as a whole holds those more often. The source made the active and inactive calls. The calls were made as follows: active = growth percent below 10; inactive = the rest.
# output must be one of active, inactive

chemSmiles	testedOn	discreteLabel
O=C1/C(=C/c2ccc(-c3ccccc3C(F)(F)F)o2)SC(=S)N1CCc1ccc(O)cc1	EKVX NSCLC	inactive
[2H]C([2H])([2H])Oc1cccc(/C=C/C(=O)/C=C(/C=C/c2cccc(OC([2H])([2H])[2H])c2OC([2H])([2H])[2H])OB(F)F)c1OC([2H])([2H])[2H]	EKVX NSCLC	inactive
O=C(Nc1ccc2ccccc2c1)c1cc2ccccc2cc1O	EKVX NSCLC	inactive
CN1C(=O)/C(=C/c2ccc(C(=O)Nc3ncc(Cc4ccccc4Cl)s3)cc2)SC1=S	EKVX NSCLC	inactive

Request: What was the test verdict on N#Cc1c(-c2cccc(F)c2)cc(-c2cccnc2)[nH]c1=O ?
Result: inactive

Request: I'd appreciate the recorded outcome for O=C(Cc1ccc(F)cc1)c1ccccc1 from this test.
Result: inactive

###

- Test system: MALME-3M melanoma
- testDetails: NCI-60 one-dose screen, 48 h
- studyConditions: 10 µM unless noted
Compounds without any hit were thinned out: in the full panel of roughly 83,000, 20% have a hit. Calls of active or inactive are those of the source. The calls were made as follows: active = growth percent below 10; inactive = the rest.
Respond with a class label; see active, inactive

molecule	discreteLabel
Cn1cc(-c2nc3c(F)cc4[nH]ncc4c3c3c2CCCC3)c(C(F)F)n1	inactive

Request: Called result for COc1ccc(CN2CCc3c(Cl)nc(N)nc3C2=O)c(OC)c1
Result: inactive

Request: Hey, what did the test say about O=C(Nc1ccccc1C(=O)N/N=C(\c1ccccc1)c1ccccn1)c1ccccc1 ?
Result: inactive

Request: # lookup: test call for O=C(c1ccc(Nc2nccc(NCCCNc3ccnc4cc(Cl)ccc34)n2)cc1)N1CCCCC1
Result: inactive

Request: I would be grateful if you could indicate the recorded call for O=C(N/N=C/c1ccc(O)cc1O)c1cccc(Nc2ccnc(C(F)(F)F)c2)c1 .
Result: active

Request: Outcome logged for Cn1cc2c(=O)nc3c(-c4nc5ccccc5[nH]4)n[nH]n3c2n1 in this assay:
Result: inactive

Request: Recorded call for CCCCCCCCCCCCCCCCCCn1cc(COc2ccc(C=O)cc2)nn1 ?
Result: inactive

Request: GET /call?item= Cc1ccc(Nc2nc(-c3cc(O)c(C)c(C)c3O)cs2)cc1 returns the recorded outcome of this test.
Result: inactive

Request: Just curious, what result did COCCn1cc(-c2csc(-c3cn(C)c4ccc(F)cc34)n2)c2cccnc21 get here?
Result: inactive

Request: Called result for CCCn1nc(C(=O)N2CCCCC2)c2c1CCC(N1CCC(c3ccncc3)CC1)C2 (centres undefined)
Result: inactive

Request: Short answer needed: outcome of this test for NNCCc1ccccc1 ?
Result: inactive

###

- System: SN12C renal
- testDetails: NCI-60 one-dose screen, 48 h (100 = growth as untreated, 0 = no growth, -100 = all killed)
- studyConditions: 10 µM unless noted
This is part of a sample that, as a whole, favours compounds with a hit. Of some 83,000 tested, about 20% had one in any assay.
Property: growth; scope: individual compounds
Record the value in %, omitting the unit from your answer.

compound	resultUnit	growth
Cc1ccc(S(=O)(=O)OC[C@@]2(C)CC[C@]3(C)CC[C@]4(C)C(=C3C2)C=C[C@@H]2[C@@]3(C)CCCNC(C)(C)[C@@H]3CC[C@]24C)cc1	%	7.76
O=C1/C(=C/c2ccc(-c3ccccc3C(F)(F)F)o2)SC(=S)N1CCc1ccc(O)cc1	%	66.6
CC12OC(CC(O)C1O)n1c3ccccc3c3c4c(c5c6ccccc6n2c5c31)C(=O)N(CCN1CCOCC1)C4=O (stereo not given)	%	10.3

Fill in: SN12C renal growth for [2H]C([2H])([2H])Oc1cc(F)ccc1/C=C/C(=O)/C=C(/C=C/c1ccc(F)cc1OC([2H])([2H])[2H])OB(F)F = 42.6

The observed growth for Brc1ccc(/C=C(/C2=NCCN2)n2ccc3ccccc32)cc1 when tested with SN12C renal stands at 73.8

SN12C renal assay, compound S=c1nc(CS)[nH]c2ccccc12 , recorded growth = 95.4

# growth measured on SN12C renal for item Cc1ccc(Nc2nc(-c3cc(O)c(C)c(C)c3O)cs2)cc1 = 97

# value of growth, SN12C renal, item CN(Cc1ccccc1)c1nc(Cl)c(C2CC(c3ccc4c(c3)OCO4)=NN2c2cc(Cl)cc(Cl)c2)s1 (stereo not given) = 99.1

For CCNC(=S)n1nc(SC)c(C(=O)OCC)c1N on SN12C renal, measured growth was 97.6

Per the reported SN12C renal data, COc1c(F)cc(-n2c(C(=O)N3CC(F)C3)cc3cccnc32)cc1F has growth of 97.6
